studyTarget: hemagglutinin (HA) of influenza B/Harbin/7/94 (Yamagata) (influenza B virus)
assayMethodText: cell-based or functional assay
readoutLabel: VNA IC50

Quick check: VNA IC50 of SD3055 (VHH) VHH: EVQLVESGGGLVQPGGSLRLSCAASGLSLDTYAMSWFRQAPGKEREGITCISSGHGLTYYADSVKGRFTISRDNSKNTLYLQMNSLQPEDTARYYCATESRYYCSDNWPAPQRYIYWGQGTQVTVSS ?
> 1000 nM

Quick check: VNA IC50 of SD3008 (VHH) VHH: EVQLLESGGGLVQPGGSLRLSCAASGFTLENKAIGWFRQAPGKEREGVSCISKSGSWTYYADSVKGRFTISRDNSKNTVYLQMNSLRPEDTAVYYCATTTAGGGLCWDGTTFSRLASSWGQGTQVTVSS ?
> 1000 nM

Quick check: VNA IC50 of SD3004 (VHH) VHH: EVQLVESGGGLVQPGGSLRLSCAASGFTFSTSWMYWLRQAPGKGLEWVSVINTDGGTYYADSVKGRFTISRDNSKDTLYLQMNSLRAEDTAVYYCAKDWGGPEPTRGQGTQVTVSS ?
101 nM
